ASSAY_SYSTEM: GNA12
CONDITIONS_USED: ASO; note: test concentration or dose not given here
These antisense oligonucleotides have a phosphorothioate backbone; sugars and methylation of C are not fully specified.
I'd appreciate it if you could supply remaining target (mRNA or protein) (fraction of control) values for the items below.
Answers are plain numbers.

# ITEM_SEQUENCE, ASSAY_RESULT
data = [
    ("CCATGCTTCTCATTTTCA", 0.49),
]

// input: 7 sequences below; output: remaining target (mRNA or protein) (fraction of control) for each
1. CATGAACAGGATGGACGT
2. TCCGGTCCAAGTTGTCCA
3. AAGTTGTCCAGGAAGTAC
4. TGTCGCGGAACTCCAGCA
5. GTGGTGAAGTGGTGGAAG
6. TCTGGTCGAACTCGCGGC
7. CCTGTCGAAGCACTGGAC

Marked response:
1. 0.5
2. 0.88
3. 0.44
4. 0.79
5. 0.87
6. 0.7
7. 0.34

// input: 8 sequences below; output: remaining target (mRNA or protein) (fraction of control) for each
1. ACAAGAACCCTTGAGCCC
2. TTGTTGACGATGGTCTCG
3. TTTTCAGAATACTGCCAA
4. GGCAGCGGCTGAGGGTCC
5. GTCCATCTTGTTGAGGAA
6. CTCAGGGCCGGGACGTAC
7. CAGCCGGTTGGTGCGCCT
8. CCCCGCCTTGTTCTCGAA

Marked response:
[0.74, 0.73, 0.63, 0.68, 0.68, 0.77, 0.25, 0.85]

// input: 4 sequences below; output: remaining target (mRNA or protein) (fraction of control) for each
1. CCGTCGAAGCACTGGAAC
2. GTGCGCTCAGGGCCGGGA
3. TCCATGAGGACCTGGTCG
4. ACTAGGAAAGTAATTCAG

Marked response:
[0.8, 0.72, 0.79, 0.47]

----------
ASSAY_SYSTEM: IL15
CONDITIONS_USED: ASO
These antisense oligonucleotides have a phosphorothioate backbone; sugars and methylation of C are not fully specified.
MEASURE_NAME: remaining target (mRNA or protein) (fraction of control)
One number for each entry.

In the examples that follow, each entry is paired with its recorded remaining target (mRNA or protein) (fraction of control).
# ITEM_SEQUENCE, ASSAY_RESULT
data = [
    ("ACTGGGTATATTAGCTGC", 0.58),
    ("AGACATGAATGCCAGCTT", 0.26),
    ("TTGTTATGTCTAAGCAGC", 0.47),
    ("TTAGCTGCATCCCAAAAT", 0.48),
    ("CATAGCAAGTACATGACA", 0.46),
]

// input: 3 sequences below; output: remaining target (mRNA or protein) (fraction of control) for each
1. CCAATACCATGAAGGCAT
2. TACATTCACCCAGTTGGC
3. ACACAAGTAGCACTGGAT

Marked response:
[0.25, 0.24, 0.43]

----------
ASSAY_SYSTEM: RIPK1
CONDITIONS_USED: ASO
These antisense oligonucleotides have a phosphorothioate backbone; sugars and methylation of C are not fully specified.
I'd appreciate it if you could supply remaining target (mRNA or protein) (fraction of control) values for the items below.

# ITEM_SEQUENCE, ASSAY_RESULT
data = [
    ("GGTTAGTTCTGGCTGACG", "≥ 1"),
]

// input: 3 sequences below; output: remaining target (mRNA or protein) (fraction of control) for each
1. GTGCATCAGGTTGCCCTT
2. TATCAAAGATAGCTTGGT
3. TTGTGCTGTCTAGTAGTG

Marked response:
["≥ 1", "≥ 1", "≥ 1"]

// input: 2 sequences below; output: remaining target (mRNA or protein) (fraction of control) for each
1. ATTCTCTTCTTGTGGGTG
2. CCACTTCCCTCAGCTCAT

Marked response:
["≥ 1", "≥ 1"]

// input: 6 sequences below; output: remaining target (mRNA or protein) (fraction of control) for each
1. TCCCAGCACTTTGGAAGG
2. TGCTCCACATCTTAAAGG
3. ACTGGGATATTATGCAGA
4. TTGTGTATCACGCCTTTT
5. GACCCATCCCAAGTCCCT
6. TGGAAGTCATTATCAACA

Marked response:
["≥ 1", 0.75, 0.98, "≥ 1", "≥ 1", "≥ 1"]

----------
ASSAY_SYSTEM: SELE
CONDITIONS_USED: ASO
These antisense oligonucleotides have a phosphorothioate backbone; sugars and methylation of C are not fully specified.
MEASURE_NAME: remaining target (mRNA or protein) (fraction of control)
Numbers only.

In the examples that follow, each entry is paired with its recorded remaining target (mRNA or protein) (fraction of control).
# ITEM_SEQUENCE, ASSAY_RESULT
rows = [
    ("TCACCCAAAGGTTTAGGCTTG", 0.1),
    ("GTTCACAACTGAAAAAGAAAC", 0.51),
    ("CTGCTGCCTCTGTCTCAGGT", 0.07),
    ("GATGTGAAGTCAGCCAA", 0.51),
    ("GGGGAGATAAAACACAAAATG", 0.79),
]

// input: 7 sequences below; output: remaining target (mRNA or protein) (fraction of control) for each
1. GGAATGCAAAGCACATCCAT
2. ACCACACTGGTATTTCACAC
3. ACGTTTGGCCTCATGGAAGT
4. TATAGGAGTTTTGATGTGAA
5. CGTTCTGCACTTACCGTTTTG
6. GAAGTCAGCCAAGAACAGCT
7. ACCTCTGCTGTTCTGATCCT

Marked response:
[0.71, 0.67, 0.35, 0.74, 0.52, 0.5, 0.17]

// input: 6 sequences below; output: remaining target (mRNA or protein) (fraction of control) for each
1. GAAATACTTTCCTGGGGAGAT
2. CTGTGAAGCAATCATGAC
3. CAGCCAAGAACAGCT
4. CAATCATGACTTCAAGAGTTC
5. GCATGTCACAGCTGTAACAAA
6. GACAATATACAAACCTTCCAT

Marked response:
1: 0.81; 2: 0.96; 3: 0.5; 4: 0.77; 5: 0.5; 6: 0.65

// input: 3 sequences below; output: remaining target (mRNA or protein) (fraction of control) for each
1. CCCAAAGGTTTAGGCTTG
2. CCAATCATGACTTCAAGAGTT
3. CCAAAGTGAGAGCTGAGAGA

Marked response:
1. 0.61
2. 0.32
3. 0.36

// input: 5 sequences below; output: remaining target (mRNA or protein) (fraction of control) for each
1. CTGATTCAAGGCTTTGGCAG
2. ACAGGATCTCTCAGGTGGGT
3. GTATGGAAGATTATAATATAT
4. CTTTCCTGGGGAGATAAA
5. GTTTAAGGCAGCATCCTAAGA

Marked response:
1: 0.55; 2: 0.2; 3: 0.59; 4: 0.96; 5: 0.38

----------
ASSAY_SYSTEM: NCOA2
CONDITIONS_USED: ASO
These antisense oligonucleotides have a phosphorothioate backbone; sugars and methylation of C are not fully specified.
I'd appreciate it if you could supply remaining target (mRNA or protein) (fraction of control) values for the items below.

In the examples that follow, each entry is paired with its recorded remaining target (mRNA or protein) (fraction of control).
# ITEM_SEQUENCE, ASSAY_RESULT
records = [
    ("CCAAGTTGGTCAGGACAT", "≥ 1"),
    ("GAAGCATATGTAAAGATA", "≥ 1"),
    ("GTTATACCTTAGATACTG", 0.84),
    ("TCAGCAGTGTCAGCAATA", "≥ 1"),
    ("ACTCATCTTGAACACATA", "≥ 1"),
    ("TTCTGAATCAGGTAAAGG", "≥ 1"),
]

// input: 2 sequences below; output: remaining target (mRNA or protein) (fraction of control) for each
1. AGAACTGGTCTTTCCTTC
2. TGCACTTCATCTATGTTG

Marked response:
0.92
0.5

----------
I'd appreciate it if you could supply remaining target (mRNA or protein) (fraction of control) values for the items below.
ASSAY_SYSTEM: Agtr1a (rat)
CONDITIONS_USED: ASO
These antisense oligonucleotides have a phosphorothioate backbone; sugars and methylation of C are not fully specified.
One number for each entry.

In the examples that follow, each entry is paired with its recorded remaining target (mRNA or protein) (fraction of control).
# ITEM_SEQUENCE, ASSAY_RESULT
data = [
    ("GGGAGCGTCGAATTCCGAGA", 0.21),
    ("GCGGTCGATGCTGAGACACG", 0.35),
    ("AAGGGTATAGCTGGTGAGAAT", 0.39),
    ("AGAAGAGTTAAGGGCCATTT", 0.46),
    ("ATAGCTGGTGAGAATGATAAG", 0.44),
    ("TGGTGATGGGCATGGCAGTG", 0.21),
    ("GTCGAATTCCGAGACTCATA", 0.25),
    ("GGCGTAGAGGTTGAAGCTCA", 0.27),
]

// input: 5 sequences below; output: remaining target (mRNA or protein) (fraction of control) for each
1. GGTATAGCTGGTGAGAATGAT
2. TTCAGGCAGTTGTTAAAATA
3. TAAAGGGTATAGCTGGTGAGA
4. GGTCGATGCTGAGACACGTG
5. CAGCAGAAGAGTTAAGGGCC

Marked response:
[0.46, 0.86, 0.35, 0.49, 0.37]

Attribution: the OligoGym collection
